experimental_system: T1, Soluble heterodimeric CD3 protein (hCD3-epsilon/hCD3-delta) with either a human Fc tag (hFcΔAdp/hFc) or a … (human, UniProt P07766 23-126; P04234 22-105)
T1 construct: also called hCD3ε/δ; not shown: Fc tag: human (hFcΔAdp/hFc)
T1 sequence (P07766 23-126 limits assumed, stated change not applied, chain 1 of 2): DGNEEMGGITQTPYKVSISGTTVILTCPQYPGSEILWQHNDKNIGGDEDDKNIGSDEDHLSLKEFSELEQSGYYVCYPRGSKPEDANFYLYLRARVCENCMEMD
T1 sequence (P04234 22-105 limits assumed, stated change not applied, chain 2 of 2): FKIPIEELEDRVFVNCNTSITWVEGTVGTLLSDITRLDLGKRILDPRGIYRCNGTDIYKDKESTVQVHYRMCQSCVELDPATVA
assay_notes: SPR Biacore 25C antibody-capture
pKd: −log10 of the molar value.
measured_quantity: pKd

{"binder": "H1H5795B (antibody, human IgG1, V domains shown, H1H: human IgG1 Fc; divalent) VH: EVQLVESGAEVKKPGASVKVSCKTSGYSFIGYYIHWMRQAPGQGLEWMGWINPKSGVTNYAQRFQGRVTMTRDTSISTAYMELSRLKSDDTAVYFCARMGDGAVFDFWGQGTLVTVSS VL: DIQLTQSPSSLSASVGDRVTITCRASQRISSFLNWYQQKPGKVPKLLIYTASNLQNGVPSRFSGTGSGTDFTLTISSLQPEDFATYYCQQSYRTPLTFGGGTKVDIKR", "numeric_readout": 7.48}
{"binder": "H1H5778P (antibody, human IgG1, V domains shown, H1H: human IgG1 Fc; divalent) VH: EVQLVESGGGLVQPGRSLRLSCVASGFTFADFTMHWVRQAPGKGLEWVSGISWNSNSIDYADSVKGRFTISRDNAKKSLFLQMSSLRAEDTALYYCVKDRSGYSRFYYGMDVWGQGTTVTVSS VL: EIVMTQSPATLSVSPGERAILSCRASQNINSNLAWYQQKPGQAPRLLIYGASTRATGVPARFSGSGSGTEFTLTIRSLQSEDFAVYYCQQYYNWPITFGHGTRLEIK", "numeric_readout": 7.56}
{"binder": "H1H5788P (antibody, V domains shown, H1H: human IgG1 Fc; divalent) VH: EVQLVESGGGLVQPGRSLRLSCAASGFTFDDYTMHWVRQAPGKGLEWVSGISWNSGSIGYADSVKGRFTISRDNAKNSLYLQMNSLRAEDTALFYCAKDQSGYGHYYYGMDVWGQGTTVTVSS VL: EIVMTQSPATLSVSPGERATLSCRASQSVSSNLAWYQQKPGQAPRLLIYGASTRATDIPARFSGSGSGTEFTLTISSLQSEDFAVYHCQQYNNWPLTFGGGTKVEIK", "numeric_readout": 7.00}
{"binder": "H1H5790B (antibody, human IgG1, V domains shown, H1H: human IgG1 Fc; divalent) VH: EVQLVESGGGVVQPGRSLRLSCAASGFTFSYYGMHWVRQAPGKGLEWVAVISFDGKNKYYADSVMGRFTISRDNSKNTLYLQMNSLRAEDSAVFFCARSYDILTGYGAGYSYHYGMDVWGQGTTVTVSS VL: AIQMTQSPSSLSASVGDRVTITCRASQRISSFLNWYQQKPGKAPKLLIYTASNLQNGVPSRFSGSGSGTDFTLTISSLQPEDFATYYCQQSYRTPLTFGGGTKVEIKR", "numeric_readout": 7.55}
{"binder": "H1H5781P (antibody, human IgG1, V domains shown, H1H: human IgG1 Fc; divalent) VH: EVQLVESGGGLVQPGRSLRLSCAASGFTFDDFTMHWVRQAPGKGLEWVSDISWNSGSIDYADSVKGRFTISRDNARNSLFLQMSSLRTEDTASYYCIKDKSGYGSYNYGLDVWGQGTTVTVSS VL: EIVLTQSPGTLSLSPGDRATLSCRASQSVSSIYLAWYQQKPGQAPRLLIHGASTRATGIPDRFSGSGSGTDFTLTISRLEPEDFALYYCHQRVSSPYTFGQGTKLEIK", "numeric_readout": 7.24}
